Assignment: determine reported pIC50 for the given compounds.
biological target: Cysteinyl leukotriene receptor 1 (Homo sapiens, UniProt Q9Y271); assay: Antagonist activity at human CysLT1 receptor expressed in Syrian hamster AV12-664 cells assessed as decrease in LTD4-induced intracellular calcium level pretreated followed by LTD4 addition by fluo-3 dye based FLIPR assay; type: functional, cell-based
Sequence (Q9Y271 whole entry): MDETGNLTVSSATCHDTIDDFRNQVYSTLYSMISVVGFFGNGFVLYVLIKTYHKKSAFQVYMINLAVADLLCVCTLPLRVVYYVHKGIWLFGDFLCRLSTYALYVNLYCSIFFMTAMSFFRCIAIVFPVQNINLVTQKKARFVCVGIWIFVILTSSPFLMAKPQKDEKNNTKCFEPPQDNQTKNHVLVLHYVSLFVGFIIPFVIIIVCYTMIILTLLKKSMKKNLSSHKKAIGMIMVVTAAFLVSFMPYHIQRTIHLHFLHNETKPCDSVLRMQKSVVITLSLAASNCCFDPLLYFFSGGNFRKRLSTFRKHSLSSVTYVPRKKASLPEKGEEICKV
One number for each entry, as −log10 of the molar value.

**Q:** Jot down pIC50 (Cysteinyl leukotriene receptor 1 (Homo sapiens, UniProt Q9Y271)) of CC(=O)c1ccc(OCc2ccc(Oc3cccc(-c4nn[nH]n4)c3)cc2)c(C)c1O .
**A:** 5.84

**Q:** Look up and report pIC50, with Cysteinyl leukotriene receptor 1 (Homo sapiens, UniProt Q9Y271) as system, for CCCc1c(OCc2ccc(Oc3ccc(C(=O)O)cn3)cc2)ccc(C(C)=O)c1O
**A:** 6.88

**Q:** Recall the reported pIC50 of CC(=O)c1ccc(OCc2cccc(Oc3ccc(-c4nn[nH]n4)cn3)c2)c(Cl)c1O when tested on Cysteinyl leukotriene receptor 1 (Homo sapiens, UniProt Q9Y271).
**A:** 6.32

**Q:** Answer with pIC50 of CCCc1c(OCc2ccc(Oc3cccc(-c4nn[nH]n4)c3)nc2)ccc(C(C)=O)c1O measured for Cysteinyl leukotriene receptor 1 (Homo sapiens, UniProt Q9Y271).
**A:** 6.32

**Q:** Check Cysteinyl leukotriene receptor 1 (Homo sapiens, UniProt Q9Y271) data and give pIC50 for CCCc1c(OCc2cccc(Oc3ncccc3-c3nn[nH]n3)c2)ccc(C(C)=O)c1O .
**A:** 6.41

Could you now look at the following compound, please?
**Q:** Send back Cysteinyl leukotriene receptor 1 (Homo sapiens, UniProt Q9Y271) pIC50 of CCCc1c(OCc2ccc(Oc3ncccc3-c3nn[nH]n3)cc2)ccc(C(C)=O)c1O only.
**A:** 6.48
